biological target: ScBzz1-D2; test: SPOT peptide array binding signal intensity (averaged, normalized) (arbitrary units (background-subtracted, floor 0; scale differs between SH3 domains)); higher = stronger binding of the SH3 domain to the peptide
Listing of recorded SPOT peptide array binding signal intensity by entry.
API doc: respond with a numeric literal and nothing else, no unit.

// worked examples, SPOT peptide array binding signal intensity included
{"columns": ["BINDER", "NUMERIC_RESULT"],
 "data": [
  ["YHSRRHPLALGFKYV", 40.5],
  ["KFIPSRPAPKPPSSA", 8],
  ["TKFRISLGLPVGAIM", 392],
  ["GQYRRTIVIPRRFFT", 78],
  ["GTIARPLFLVVLFFI", 37.5],
  ["VGFRLALKFPSRITG", 649],
  ["RKLRTVPGVPLIHLT", 1.5],
  ["ISNFVPPNLPMRRFK", 63]
]}

Task item: # lookup: SPOT peptide array binding signal intensity of NGRRRPKFRVQLSGN
Reply: 104

Task item: # lookup: SPOT peptide array binding signal intensity of LPPPPPPPPPPPLPQ
Reply: 2

Task item: # query: SPOT peptide array binding signal intensity of entry ALRRRLPVTRSKINW
Reply: 27
